Where do the numbers come from? From paper PMC6308234.

Biological target: T1, DENV-4 nonstructural protein 1 (NS1), recombinant (dengue virus serotype 4 (DENV-4))
T1 chain: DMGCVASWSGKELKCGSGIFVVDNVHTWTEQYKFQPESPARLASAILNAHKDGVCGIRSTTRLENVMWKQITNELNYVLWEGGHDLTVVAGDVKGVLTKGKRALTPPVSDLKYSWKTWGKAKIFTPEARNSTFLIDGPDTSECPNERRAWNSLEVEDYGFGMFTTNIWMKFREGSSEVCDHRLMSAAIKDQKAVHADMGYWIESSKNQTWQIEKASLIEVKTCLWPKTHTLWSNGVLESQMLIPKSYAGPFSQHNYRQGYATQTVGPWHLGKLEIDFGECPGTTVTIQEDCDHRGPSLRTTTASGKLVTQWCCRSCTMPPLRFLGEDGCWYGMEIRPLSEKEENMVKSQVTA
Assay: SPR; NS1 immobilized
RESULT TYPE: koff

[
  {
    "BINDER": "sdAb DD9 (VHH, source: E. coli Turner (DE3), pET22b, periplasmic, purified (Ni-Sepharose, SEC)) VHH: EVQLQASGGGLVQAGGSLRVSCAASGIAFTNYALAWYRQPPGKQREWVATVGVLGGTKYADSVKGRFAISRDNAKNTVILQMNSLKPVDTAVYFCAAVEWSNGRYYWDSWGQGTQVTVSA",
    "RESULT": "0.00428 s⁻¹"
  },
  {
    "BINDER": "sdAb DD5 (VHH, source: E. coli Turner (DE3), pET22b, periplasmic, purified (Ni-Sepharose, SEC)) VHH: EVQLQASGGGLVQAGGSLRLSCAASGRAFSSETMGWFRQAPGKEREFVAAIWRIGGSTYNTDYADSVKGRFAISADRAKNTVDLQMNTLKPEDTAVYYCAGKMRGRSVNLYDYDYWGQGTQVTVSS",
    "RESULT": "0.00193 s⁻¹"
  },
  {
    "BINDER": "sdAb DH12 (VHH, source: E. coli Turner (DE3), pET22b, periplasmic, purified (Ni-Sepharose, SEC)) VHH: EVQLVESGGGSVQAGGSLRLSCAASERTFSYYFMGWFRQAPGKEREWVARIRWNGDGADYTDAVKDRFTISSDHAKNTVYLQMNSLKPEDTAVYYCAAANSIWKPTTRDYNYWGQGTQVSVSS",
    "RESULT": "0.00604 s⁻¹"
  },
  {
    "BINDER": "sdAb DC4 (VHH, source: E. coli Turner (DE3), pET22b, periplasmic, purified (Ni-Sepharose, SEC)) VHH: EVQLQASGGGLVQAGGSLRLSCAASERTFSHYFVGWFRQAPGKEREFVARITWSGSNVEYEDAVKDRFTLSSDNAKNTVYLHMNSLKPEDTAVYYCAAANTIWTPTIRDYNVWGQGTQVTVSS",
    "RESULT": "0.00501 s⁻¹"
  }
]
